- SYSTEM_NAME: T1, LHD206 chainB
- T1 construct: also called LHD206B
- T1 chain: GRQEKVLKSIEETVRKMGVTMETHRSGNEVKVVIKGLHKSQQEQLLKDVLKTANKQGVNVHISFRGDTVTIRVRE
- ASSAY: BLI, global kinetic fit, 1:1 model
PARAMETER: pKd
Note on pKd: it is the negative log10 of concentration, concentration in mol/L.

Enquiry: I am curious: what pKd value has been reported for LHD206 chainA (designed binder, also called LHD206A) TDELLERLRQLFEELHERGTEIVVEVHINGRKTEIEVQGIDKRLLKIILEVIREEIEREGSSEVEVNVHSGGQTWTFNEK ?
Return: 8.55
